- target: WT GcoA (Amycolatopsis sp.)
- Sequence (P0DPQ7 whole entry): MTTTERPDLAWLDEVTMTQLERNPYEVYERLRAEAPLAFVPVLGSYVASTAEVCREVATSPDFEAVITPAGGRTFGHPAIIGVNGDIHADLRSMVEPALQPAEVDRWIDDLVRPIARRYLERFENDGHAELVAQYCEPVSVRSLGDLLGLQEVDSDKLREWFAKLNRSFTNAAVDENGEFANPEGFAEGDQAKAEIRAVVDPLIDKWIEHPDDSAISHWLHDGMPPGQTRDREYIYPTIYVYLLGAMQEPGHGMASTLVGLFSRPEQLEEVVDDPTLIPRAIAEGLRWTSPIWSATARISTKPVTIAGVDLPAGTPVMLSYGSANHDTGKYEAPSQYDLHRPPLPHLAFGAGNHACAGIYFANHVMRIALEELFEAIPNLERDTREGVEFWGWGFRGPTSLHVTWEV
pKd: −log10 of the molar value.
measured_quantity: pKd

item_smiles=COc1ccccc1O reported_measurement=8.19

----------
- target: GcoA-F169A (Amycolatopsis sp., UniProt P0DPQ7, F169A)
- Sequence (P0DPQ7 whole entry F169A): as the sequence (P0DPQ7 whole entry) above, with F169A counted along it
- assay_comment: Substrate dissociation constant by ferric spin-state (UV/vis) titration
- Assay type: binding, Amycolatopsis sp. ATCC 39116
- Set-up: GST (N, cleaved yes); made in house; host or cells: E. coli Rosetta 2 (DE3)
pKd: −log10 of the molar value.
measured_quantity: pKd

compound="COc1cccc(OC)c1O [syringol, 2,6-dimethoxyphenol]" measured_quantity=pKd reported_measurement=5.77
compound="COc1ccccc1O [guaiacol, 2-methoxyphenol]" measured_quantity=pKd reported_measurement=5.15
